# System tested: His-PABP WT-Flag (Flag-PABP) (UniProt P11940 2-636)
# Sequence (P11940 2-636): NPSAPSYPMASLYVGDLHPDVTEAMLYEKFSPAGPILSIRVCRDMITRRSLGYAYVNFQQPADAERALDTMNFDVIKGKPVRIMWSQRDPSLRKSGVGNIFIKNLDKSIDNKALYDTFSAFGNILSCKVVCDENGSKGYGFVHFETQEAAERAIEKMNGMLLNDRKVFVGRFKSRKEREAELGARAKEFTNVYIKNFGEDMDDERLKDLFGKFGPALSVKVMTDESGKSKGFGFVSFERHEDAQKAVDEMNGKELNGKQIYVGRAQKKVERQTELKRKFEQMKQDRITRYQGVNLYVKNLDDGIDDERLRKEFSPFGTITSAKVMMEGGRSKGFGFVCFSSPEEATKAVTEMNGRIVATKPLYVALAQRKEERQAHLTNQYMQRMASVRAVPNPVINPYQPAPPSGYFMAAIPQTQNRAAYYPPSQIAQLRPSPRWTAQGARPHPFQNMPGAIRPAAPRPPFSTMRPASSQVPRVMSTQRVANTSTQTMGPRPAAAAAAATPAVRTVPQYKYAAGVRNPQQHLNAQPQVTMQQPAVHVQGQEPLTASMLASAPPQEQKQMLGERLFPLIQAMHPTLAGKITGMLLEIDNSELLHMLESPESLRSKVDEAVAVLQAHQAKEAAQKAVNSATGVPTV
# Assay explanation: EMSA
Value kind: Kd

## Task Please give the measured Kd for this binder: AAAAAAAAAAAAAAAAAAAAAAAAA (ssRNA) [poly(A)25]
## Result ~500 pM
